// values below are reported max response
- method description: Cycloheximide Counterscreen for Small Molecule Inhibitors of Shiga Toxin; also: read at 38.3 µM for the half of the compounds with a filed dose; 0% is about no effect
- assay context: cell reporter, cycloheximide protein synthesis inhibition counterscreen; stronger effect = higher value
Hit rate of the full screen: of about 300,000 compounds, about 37,000 (12%) were called active. The list comes from a sample in which actives are over-represented; it also holds close analogues and randomly drawn compounds.

- compound: "CC(=O)N(C)c1ccc(NC(=O)C(F)(F)F)cc1"
  max response [%]: -1.33
- compound: "COc1cccc(-c2nc(CS(=O)CC(=O)NCc3ccc(F)cc3)c(C)o2)c1 (stereo unspecified)"
  max response [%]: -2.32
- compound: "O=C(NCc1ccco1)C1CCCN1S(=O)(=O)c1ccccc1C(F)(F)F (stereo unspecified)"
  max response [%]: -2.95
- compound: "COc1ccc(NC(=O)N2CCCC(C(=O)Nc3ccccc3OC)C2)cc1 (stereo unspecified)"
  max response [%]: -2.82
- compound: "Cc1ccc(Cc2nc(-c3cccc(C)c3)no2)cc1"
  max response [%]: 31.8
- compound: "O=C(NC(=S)N1CCN(Cc2ccccc2)CC1)c1ccccc1"
  max response [%]: 10.6
- compound: "CN(C)c1ccc(N/C=C/C(=O)C(F)(F)F)cc1"
  max response [%]: 55.6
- compound: "Cc1cccc(-c2noc(CCC(=O)NC3CCCC3)n2)c1"
  max response [%]: 2.28
- compound: "O=C(Nc1ccccc1)N1CCN(C(=O)Nc2ccccc2)CC1"
  max response [%]: -0.439
- compound: "Cc1cccc(-c2nc(Nc3ccc(O)cc3)c3ccccc3n2)c1"
  max response [%]: -0.236
- compound: "COc1ccc(NC(=O)N2CCC(Cc3ccccc3)CC2)cc1"
  max response [%]: 19.5

* * *

Entries annotated with measured max response
- method description: Cycloheximide Counterscreen for Small Molecule Inhibitors of Shiga Toxin; also: read at 38.3 µM for the half of the compounds with a filed dose; 0% is about no effect
- assay context: cell reporter, cycloheximide protein synthesis inhibition counterscreen; stronger effect = higher value
Hit rate of the full screen: of about 300,000 compounds, about 37,000 (12%) were called active. The sample as a whole holds a higher share of actives than the screen did.
observed property: max response (%)

- structure smiles: "C(=N\\Nc1ccc2ccccc2n1)/c1ccc2c(c1)OCO2"
  measurement: -3.9
- structure smiles: "CS(=O)(=O)N1CCN(CC(=O)NC2CCCC2)CC1"
  measurement: 2.24
- structure smiles: "Cn1nnnc1-c1cc(Cl)cc(Cl)c1"
  measurement: 1.2
- structure smiles: "Cc1noc(C)c1/C=N/Nc1ccc2ccccc2n1"
  measurement: 39.1
- structure smiles: "COC(=O)c1ccc(CN2C(=O)NC(c3ccccc3)(c3ccccc3)C2=O)o1"
  measurement: -8.22
- structure smiles: "O=C1c2ccccc2C(=O)c2c1cccc2N1CCN(CCO)CC1"
  measurement: 28.2
- structure smiles: "CCc1nc(Nc2ccc(NC(C)=O)cc2)c2oc3ccccc3c2n1"
  measurement: -3.08
- structure smiles: "O=C(C1=C[C@H](c2ccc(C(F)(F)F)cc2)C[C@H](OCc2ccc(CO)cc2)O1)N1CCN(Cc2ccccc2)CC1"
  measurement: -1.19
- structure smiles: "O=C(Nc1cccc(C(F)(F)F)c1)c1ccc(N2CCNCC2)c([N+](=O)[O-])c1"
  measurement: 0.923
- structure smiles: "CCCC(=O)N1CCN(c2nnc(-c3ccc(C)cc3)c3ccccc23)CC1"
  measurement: -7.1
- structure smiles: "CCc1nc(Nc2ccc3nccnc3c2)c2oc3ccccc3c2n1"
  measurement: 12.4
